experiment: qHTS of pediatric cancer cell lines to identify multiple opportunities for drug repurposing: Primary screen for MG 63 (6-TG R) cells (AID 1347105); settings: MG 63 (6-TG R) viability, CellTiter-Glo, 48 h; series mostly up to 46 µM; also: nearly all actives have a fitted effect of over 50% in size
Records with an inconclusive call do not appear. Calls of active or inactive are those of the source. Calls follow the shape of the dose curve; as a rule, active = well fitted cell-killing curve with a large enough effect; inconclusive = small, poorly fitted or top-dose-only effect; inactive = no such curve, though single readings can be large or run the other way.
Tick one outcome: active, inactive

[[record]]
mol_smiles = "CC1(C)O[C@H]2C[C@@H]3[C@H]4CCC5=CC(=O)C=C[C@]5(C)[C@@]4(F)[C@@H](O)C[C@]3(C)[C@]2(C(=O)CO)O1"
group = "inactive"


Data request: Write down the call the test reported for this compound. Item: NC1=N[C@@]2(c3cc(NC(=O)c4ccc(F)cn4)ccc3F)COC[C@@H]2CS1
Data returned: active

Data request: Write down the call the test reported for this compound. Item: CCN(CC)C(=O)c1ccc(O)c(OC)c1
Data returned: inactive

Data request: Write down the call the test reported for this compound. Item: CC(C)(C)NC(=O)Nc1cccc(Nc2ncc(F)c(NC(C)(C)CO)n2)c1
Data returned: inactive

----------
experiment: Quantitative High-Throughput drug screen in 47 multiple myeloma cell lines against the NCATS MIPE library collection: KMS28PE_JCRB cell viability assay (AID 1918983); conditions: KMS28PE multiple myeloma viability, CellTiter-Glo ATP, 48 h; series mostly up to 45.8 µM; also: nearly all actives have a fitted effect of over 35% in size
Records with an inconclusive call do not appear. Calls of active or inactive are those of the source. Calls come from the whole dose curve; as a rule, active = well fitted cell-killing curve with a large enough effect; inconclusive = small, poorly fitted or top-dose-only effect, or effect the other way; inactive = no such curve, though single readings can be large or run the other way.
Tick one outcome: active, inactive

These recorded examples may help you get a feel for the data.
[[record]]
mol_smiles = "O=C(O)[C@H]1O[C@H](Oc2cc3oc(-c4ccccc4)cc(=O)c3c(O)c2O)[C@H](O)[C@@H](O)[C@H]1O"
group = "active"

[[record]]
mol_smiles = "NC(=O)NN=Cc1ccc([N+](=O)[O-])o1"
group = "inactive"


Data request: Write down the call the test reported for this compound. Item: O=c1cc(-c2ccc(O)cc2)oc2cc(O)cc(O)c12
Data returned: active

----------
assay: qHTS of pediatric cancer cell lines to identify multiple opportunities for drug repurposing: Primary screen for BT-12 cells (AID 1347101); details: BT-12 viability, CellTiter-Glo luminescence, 48 h; series mostly up to 57.3 µM; also: nearly all actives have a fitted effect of over 25% in size
Inconclusive results are not listed. Active and inactive are the calls of the source. Calls come from the whole dose curve; as a rule, active = well fitted cell-killing curve with a large enough effect; inconclusive = small, poorly fitted or top-dose-only effect; inactive = flat fitted curve, though single readings scatter.
Tick one outcome: active, inactive

These recorded examples may help you get a feel for the data.
[[record]]
compound = "NC1CCC(Nc2nc(Nc3ccc(C(=O)N4CCCCC4)cc3)c3ncn(-c4cccc(F)c4)c3n2)CC1 (stereo not drawn)"
group = "inactive"

[[record]]
compound = "CCc1ccc(OCc2ccccc2C(=O)Nc2ccc3nc(C)cc(N)c3c2)cc1"
group = "active"

[[record]]
compound = "NC1=N[C@@]2(c3cc(NC(=O)c4ccc(F)cn4)ccc3F)COC[C@@H]2CS1"
group = "active"


Data request: Write down the call the test reported for this compound. Item: CC(=O)O[C@]1(C(C)=O)CC[C@@H]2[C@@H]3C[C@H](C)C4=CC(=O)CC[C@]4(C)[C@H]3CC[C@@]21C
Data returned: active

----------
test: Quantitative High-Throughput drug screen in 47 multiple myeloma cell lines against the NCATS MIPE library collection: KMS12PE_JCRB cell viability assay (AID 1918972); conditions: KMS12PE myeloma viability, CellTiter-Glo ATP, 48 h; series mostly up to 45.8 µM; also: nearly all actives have a fitted effect of over 30% in size
Records with an inconclusive call do not appear. Calls of active or inactive are those of the source. The call rests on the fitted dose curve; in most records, active means well fitted cell-killing curve with a large enough effect; inconclusive means small, poorly fitted or top-dose-only effect, or effect the other way; inactive means no such curve, though single readings can be large or run the other way.
Tick one outcome: true (active), false (inactive)

These recorded examples may help you get a feel for the data.
[[record]]
mol_smiles = "CN(C)c1cc(NC(=O)CNC(C)(C)C)c(O)c2c1C[C@@H]1C[C@H]3[C@H](N(C)C)C(=O)C(C(N)=O)=C(O)[C@@]3(O)C(=O)C1=C2O"
group = "false"

[[record]]
mol_smiles = "O=C(Nc1cc(Cl)cc2c1[nH]c1cnccc12)c1cccnc1"
group = "false"

[[record]]
mol_smiles = "CC=C(C)C(=O)O[C@H]1C(C)=C[C@]23C(=O)[C@@H](C=C(CO)[C@@H](O)[C@]12O)[C@H]1[C@@H](C[C@H]3C)C1(C)C"
group = "true"

[[record]]
mol_smiles = "C=CCc1ccc(O)c(-c2ccc(O)c(CC=C)c2)c1"
group = "true"


Data request: Write down the call the test reported for this compound. Item: c1cc(-c2sc(-c3ccncc3)c(-c3ccncc3)c2-c2ccncc2)ccn1
Data returned: true

Data request: Write down the call the test reported for this compound. Item: c1ccc2c(Cc3c[nH]c4ccccc34)c[nH]c2c1
Data returned: true

Data request: Write down the call the test reported for this compound. Item: NC[C@@H]1O[C@@H](O[C@H]2[C@@H](O)[C@H](O[C@@H]3[C@@H](O)[C@@H](N)C[C@H](N)[C@H]3O[C@H]3O[C@H](CN)[C@@H](O)[C@@H](O)[C@H]3N)O[C@H]2CO)[C@H](N)[C@@H](O)[C@@H]1O
Data returned: false

Data request: Write down the call the test reported for this compound. Item: O=C(Nc1c(Cl)cncc1Cl)c1ccc(OC(F)F)c(OCC2CC2)c1
Data returned: false
